Quick reference: pIC50 of the listed items.
- system: KDR kinase (Homo sapiens)
// pIC50 is dimensionless: -log10 of concentration (M)

Look over these answered cases.
compound: COc1ccc(CN2C3CC2CN(c2ccc(-c4cc(C#CCC(C)(C)O)cn5ncc(C#N)c45)cn2)C3)cn1
assayEndpoint: pIC50
quantitativeResult: 7.89

compound: COc1ccc(CN2C3CC2CN(c2ccc(-c4cc(OCC5(C#N)CC5)cn5ncc(C#N)c45)cn2)C3)cn1
assayEndpoint: pIC50
quantitativeResult: 7.06

compound: COc1ccc(CN2C3CC2CN(c2ccc(-c4cc(OCCCS(C)(=N)=O)cn5ncc(C#N)c45)cn2)C3)cn1 (stereo not shown)
assayEndpoint: pIC50
quantitativeResult: 7.56

Now consider a different compound.
Entry COc1ccc(CN2C3CC2CN(c2ccc(-c4cc(OCC(C)(C)C#N)cn5ncc(C#N)c45)cn2)C3)cn1 under KDR kinase (Homo sapiens) had pIC50 of 7.15

---

- system: KDR kinase (Homo sapiens, UniProt P35968)
- Sequence (P35968 20-1356): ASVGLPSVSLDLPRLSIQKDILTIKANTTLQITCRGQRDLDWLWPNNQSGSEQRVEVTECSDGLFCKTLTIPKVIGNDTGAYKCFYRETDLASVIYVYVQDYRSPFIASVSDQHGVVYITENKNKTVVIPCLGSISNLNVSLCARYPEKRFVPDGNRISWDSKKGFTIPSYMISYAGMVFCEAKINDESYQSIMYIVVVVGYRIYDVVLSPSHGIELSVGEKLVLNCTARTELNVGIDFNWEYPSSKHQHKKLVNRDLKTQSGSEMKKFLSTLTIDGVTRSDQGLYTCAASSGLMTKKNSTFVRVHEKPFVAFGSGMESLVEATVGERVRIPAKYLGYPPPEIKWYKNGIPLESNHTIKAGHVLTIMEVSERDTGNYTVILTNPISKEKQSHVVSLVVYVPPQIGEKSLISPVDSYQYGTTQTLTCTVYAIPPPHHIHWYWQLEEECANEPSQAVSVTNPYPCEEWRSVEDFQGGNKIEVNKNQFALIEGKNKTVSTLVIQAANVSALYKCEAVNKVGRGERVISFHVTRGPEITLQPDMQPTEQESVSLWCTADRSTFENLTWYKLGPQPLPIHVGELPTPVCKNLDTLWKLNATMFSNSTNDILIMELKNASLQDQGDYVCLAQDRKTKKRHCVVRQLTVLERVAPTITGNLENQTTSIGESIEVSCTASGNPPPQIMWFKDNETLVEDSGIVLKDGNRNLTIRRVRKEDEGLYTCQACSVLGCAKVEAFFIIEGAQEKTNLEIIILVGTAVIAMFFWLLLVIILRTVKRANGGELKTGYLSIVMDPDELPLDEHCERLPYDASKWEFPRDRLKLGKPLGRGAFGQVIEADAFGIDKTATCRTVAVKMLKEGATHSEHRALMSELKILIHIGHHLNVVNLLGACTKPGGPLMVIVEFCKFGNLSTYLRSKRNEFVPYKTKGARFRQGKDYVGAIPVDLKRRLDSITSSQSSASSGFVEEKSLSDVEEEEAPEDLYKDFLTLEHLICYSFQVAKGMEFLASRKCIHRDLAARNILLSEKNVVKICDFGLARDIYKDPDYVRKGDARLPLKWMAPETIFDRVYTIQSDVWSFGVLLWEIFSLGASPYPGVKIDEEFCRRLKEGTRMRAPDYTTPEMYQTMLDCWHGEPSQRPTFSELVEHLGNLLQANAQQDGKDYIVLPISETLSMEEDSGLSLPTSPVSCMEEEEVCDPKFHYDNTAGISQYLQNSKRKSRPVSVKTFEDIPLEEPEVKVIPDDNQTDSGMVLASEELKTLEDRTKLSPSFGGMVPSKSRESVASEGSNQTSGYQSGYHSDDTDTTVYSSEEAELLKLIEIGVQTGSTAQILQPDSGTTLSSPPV
Overview of reported IC50 across a group of compounds:
Report the figure in nM without appending any unit label.

Examples with answers:
compound: COCC(C)(O)C#Cc1cc(-c2ccc(N3CC4CC(C3)N4Cc3cnc(OC)c(F)c3)nc2)c2c(C#N)cnn2c1 (centres unmarked)
assayEndpoint: IC50
quantitativeResult: 11.2

compound: C#C[C@](C)(O)COc1cc(-c2ccc(N3CC4CC(C3)N4Cc3cnc(OC)c(F)c3)nc2)c2c(C#N)cnn2c1
assayEndpoint: IC50
quantitativeResult: 14.5

compound: CC1(C#N)CN(c2cc(-c3ccc(N4CCC(C)(NC(=O)c5ncccc5Cl)CC4)nc3)c3c(C#N)cnn3c2)C1
assayEndpoint: IC50
quantitativeResult: 15.8

compound: COc1ccc(CN2C3CC2CN(c2ccc(-c4cc(N5CC(C)(C#N)C5)cn5ncc(C#N)c45)cn2)C3)cn1
assayEndpoint: IC50
quantitativeResult: 6.9

compound: COc1ccc(CN2C3CC2CN(c2ccc(-c4cc(N5CCC(C)(O)CC5)cn5ncc(C#N)c45)cn2)C3)cn1
assayEndpoint: IC50
quantitativeResult: 6.2

Given the compound COc1ncc(CN2C3CC2CN(c2ccc(-c4cc(OCC5CC(C)(O)C5)cn5ncc(C#N)c45)cn2)C3)cc1F (centres unmarked) and test system KDR kinase (Homo sapiens, UniProt P35968), the measured IC50 is 7.4

Readout IC50 for [2H]C([2H])([2H])Oc1ccc(CN2C3CC2CN(c2ccc(-c4cc(N5CC(C(C)(C)O)C5)cn5ncc(C#N)c45)cn2)C3)cn1 , test system KDR kinase (Homo sapiens, UniProt P35968), was 11

The value of IC50 recorded for COc1ccc(CN2C3CC2CN(c2ccc(-c4cc(C#C[C@H](C)O)cn5ncc(C#N)c45)cn2)C3)cn1 when tested on KDR kinase (Homo sapiens, UniProt P35968) reads 9.4

---

- system: Ba/F3 KIF5B-RET cells (Homo sapiens)
- Construct: fused on or other part: P33176 (Kinesin-1 heavy chain)
- Sequence (P07949 whole entry, change not shown, the tested form may be a part): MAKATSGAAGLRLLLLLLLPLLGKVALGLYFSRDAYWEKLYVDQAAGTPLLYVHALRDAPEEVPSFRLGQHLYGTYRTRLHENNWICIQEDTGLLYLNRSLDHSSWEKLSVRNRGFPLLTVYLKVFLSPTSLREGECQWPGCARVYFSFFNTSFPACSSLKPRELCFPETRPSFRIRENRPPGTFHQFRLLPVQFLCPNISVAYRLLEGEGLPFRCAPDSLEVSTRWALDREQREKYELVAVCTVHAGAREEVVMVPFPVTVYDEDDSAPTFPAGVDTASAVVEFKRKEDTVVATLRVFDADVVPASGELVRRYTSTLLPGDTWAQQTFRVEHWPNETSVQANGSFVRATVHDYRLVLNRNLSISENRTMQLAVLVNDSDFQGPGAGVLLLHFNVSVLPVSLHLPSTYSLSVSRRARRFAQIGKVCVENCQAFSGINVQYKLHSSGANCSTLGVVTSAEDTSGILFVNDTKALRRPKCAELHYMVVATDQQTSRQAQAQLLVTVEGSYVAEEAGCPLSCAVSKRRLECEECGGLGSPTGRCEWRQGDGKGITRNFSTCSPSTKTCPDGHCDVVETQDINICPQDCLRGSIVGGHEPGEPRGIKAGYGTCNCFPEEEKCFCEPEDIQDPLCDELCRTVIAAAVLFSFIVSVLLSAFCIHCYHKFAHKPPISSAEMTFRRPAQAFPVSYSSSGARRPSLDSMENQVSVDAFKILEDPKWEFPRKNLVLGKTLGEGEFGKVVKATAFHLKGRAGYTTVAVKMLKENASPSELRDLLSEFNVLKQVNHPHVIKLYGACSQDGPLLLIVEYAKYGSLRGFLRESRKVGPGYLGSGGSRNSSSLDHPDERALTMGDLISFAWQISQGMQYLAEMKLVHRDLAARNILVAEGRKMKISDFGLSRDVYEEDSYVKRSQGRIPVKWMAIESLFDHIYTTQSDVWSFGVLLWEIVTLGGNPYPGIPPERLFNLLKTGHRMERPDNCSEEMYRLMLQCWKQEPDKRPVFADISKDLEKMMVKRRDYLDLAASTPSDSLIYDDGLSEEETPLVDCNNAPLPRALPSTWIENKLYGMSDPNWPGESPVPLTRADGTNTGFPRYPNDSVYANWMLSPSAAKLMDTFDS
- assayExplanation: Inhibition of proliferation of Ba/F3 KIF5B-RET cells (CellTiter-Glo)
- Type: cell-based
- cond: 72 to 144 hours
hey, just use 1 (yes) if measured IC50 is less than 20 nM, otherwise 0 (no)

Worked examples follow.
compound: COc1ccc(CN2C3CC2CN(c2ccc(-c4cc(C#CC5(O)CCOCC5)cn5ncc(C#N)c45)cn2)C3)cn1 [Embodiment 78]
system: Ba/F3 KIF5B-RET cells (Homo sapiens)
group: 1 (yes)
--
compound: COCC(C)(O)C#Cc1cc(-c2ccc(N3CC4CC(C3)N4Cc3ccc(OC)nc3)nc2)c2c(C#N)cnn2c1 (centres unmarked) [Embodiment 75]
system: Ba/F3 KIF5B-RET cells (Homo sapiens)
group: 0 (no)

stdin: Bench note: check whether COc1ccc(CN2C3CC2CN(c2ccc(-c4cc(C#CC5(O)CCC5)cn5ncc(C#N)c45)cn2)C3)cn1 [Embodiment 82] shows IC50 below 20 nM
stdout: 0 (no)

stdin: Does the reported IC50 of CNC(=O)C12CC(COc3cc(-c4ccc(N5CC6CC(C5)N6Cc5ccc(OC)nc5)nc4)c4c(C#N)cnn4c3)(C1)C2 [Embodiment 67] stay below 20 nM?
stdout: 1 (yes)

stdin: Does the reported IC50 of the following compound sit strictly below 20 nM? COc1ccc(CN2C3CC2CN(c2ccc(-c4cc(C#CC(O)C5CC5)cn5ncc(C#N)c45)cn2)C3)cn1 (centres unmarked) [Embodiment 19]
stdout: 0 (no)

All figures here come from patent US20230406865A1.
